# Measurement Notes: chemical genetic growth profiling, strain panel (AID 1159580);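 further: tested at 20 µM; growth read once vehicle control cultures reached saturation at 30 °C; 1 = growth at the plate median or of vehicle wells; lower values mean less growth of the strain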
# Condition Parameters: S. cerevisiae deletion strains, growth OD, locus YLR102C, strain apc9, hits give low values
The campaign covered roughly 5,500 compounds. About 2,000 (36%) were called active. Inconclusive results (about 18%) are left out. The list shows a part of the results.
Assay Readout: normalized growth

>>> result_number("CC(=O)O[C@@H]1CC2C(C)(C)C=CC(=O)[C@]2(C)C2CC[C@@]3(C)[C@H](c4ccoc4)OC(=O)C4OC43[C@@]21C (stereo partly drawn)")
0.998
>>> result_number("COc1ccccc1OCCNCC(O)COc1cccc2[nH]c3ccccc3c12 (stereo not drawn)")
1
>>> result_number("CN/C(=C\\[N+](=O)[O-])NCCSCc1ccc(CN(C)C)o1")
0.977
>>> result_number("C/C=C/c1ccc2c(c1)OCO2")
1.01
>>> result_number("C=CC(C)(O)CC/C=C(\\C)CCC=C(C)C (stereo not drawn)")
1
>>> result_number("CC(=O)O[C@@H]1CC2C(C)(C)C(=O)CC[C@]2(C)C2CC[C@]3(C)C(=CC(=O)O[C@H]3c3ccoc3)[C@@]21C (stereo partly drawn)")
0.99
>>> result_number("NC[C@H](O)c1ccc(O)c(O)c1")
1.02
>>> result_number("CC(=O)OC1CC(OC(C)=O)C2(C)C(CC(OC(C)=O)C3(C)C2CCC2(C)C(c4ccoc4)CC4OC423)C1(C)C (stereo not drawn)")
1.01
>>> result_number("COc1cc(C(=O)NCc2ccc(OCCN(C)C)cc2)cc(OC)c1OC")
0.984
>>> result_number("CS(=O)(=O)CCCCN=C=S")
0.983
>>> result_number("CCN(CC)CCOc1ccc(/C(=C(\\Cl)c2ccccc2)c2ccccc2)cc1")
0.0621
>>> result_number("CCN(CC)CCOc1ccc2c(c1)C(=O)c1cc(OCCN(CC)CC)ccc1-2")
0.975
>>> result_number("Cc1occc(=O)c1/C=C/O")
1.01
>>> result_number("O[N+]1=CC=CCC1=S.On1ccccc1=S.[Zn]")
0.0619
>>> result_number("CCCC1O[C@@H]2CC3C4CCC5=CC(=O)C=CC5(C)C4[C@@H](O)CC3(C)[C@]2(C(=O)CO)O1 (stereo partly drawn)")
1.02
>>> result_number("O=[N+]([O-])c1ccc(O)c([N+](=O)[O-])c1")
0.691
>>> result_number("CC(=O)Nc1cc([As](=O)(O)O)ccc1O")
0.984
>>> result_number("OC[C@@H]1CCCN2CCCC[C@H]12")
1.01
>>> result_number("Cc1ccc2cc3c(ccc4ccccc43)c3c2c1CC3")
0.983
>>> result_number("CC(C)NCC(O)c1ccc(O)c(O)c1 (stereo not drawn)")
1
>>> result_number("CN1C(CC(=O)c2ccccc2)CCCC1CC(O)c1ccccc1 (stereo not drawn)")
0.983
>>> result_number("CC1(C)C(O)CC(O)C2(C)C1CC(O)C1(C)C2CCC2(C)C(c3ccoc3)CC3OC321 (stereo not drawn)")
1
>>> result_number("CO[C@H]1/C=C/O[C@@]2(C)Oc3c(C)c(O)c4c(O)c(c(/C=N/N5CCN(C)CC5)c(O)c4c3C2=O)NC(=O)/C(C)=C\\C=C\\C(C)[C@H](O)[C@@H](C)[C@@H](O)[C@@H](C)[C@@H](OC(C)=O)[C@@H]1C (stereo partly drawn)")
1.02
>>> result_number("CC(=O)O[C@@H]1C[C@@]2(C)[C@H](c3ccoc3)C[C@H]3O[C@]32[C@]2(C)C(=O)C(O)=C3C(C)(C)C(=O)C=C[C@]3(C)C12 (stereo partly drawn)")
0.958
>>> result_number("CCCc1occc(=O)c1/C=C/O")
0.966
>>> result_number("COC(C)(C)CCC[C@H](C)C/C=C/C(C)=C/C(=O)OC(C)C")
1.02
>>> result_number("O=C(O)CCCCC1CCSS1 (stereo not drawn)")
0.984
>>> result_number("CCN(CC)CCNC(=O)c1cc(S(C)(=O)=O)ccc1OC")
1.01
